# System: NCI-H226 lung
# protocol-details: NCI-60 one-dose screen, 48 h (100 = growth as untreated, 0 = no growth, -100 = all killed)
# assay-context: 10 µM unless noted
# Description: Growth inhibition of the NCI-H226 human Non-Small Cell Lung tumor cell line is measured as a screen for anti-cancer activity. Cells are grown in 96 well plates and exposed to the test compound for 48 hours. Compounds are tested at a single concentration, which is 10^-5 M for most compounds. The reported endpoint is percent growth (GI% or GIPRCNT), where numbers from 0 - 100% represent growth inhibition, and numbers from -100% - 0 represent cell death. […]
This is part of a sample that, as a whole, favours compounds with a hit. Of some 83,000 tested, about 20% had one in any assay. The source made the active and inactive calls. The calls were made as follows: active = growth percent below 10; inactive = the rest.
readout-name: growth

Use the examples below as a reference point.
compound	growth
CCOC(C=O)OCC	104% (inactive)
COC1OC(C(O)C(O)CO)C(O)C(O)C1O (stereo unspecified)	93.4% (inactive)
ClCc1cccc2c(CCl)cccc12	74.9% (inactive)
Nc1cc2ccccc2c(O)c1O	81.2% (inactive)
Cc1cccc(-[n+]2noc(N)n2)c1	80.8% (inactive)
O=S1(=O)c2ccccc2Oc2ccccc21	100% (inactive)

growth reading for COc1cccc(N=CNc2cccc(OC)c2)c1 : 99.7% (inactive)

growth reading for C/C(Cc1ccccc1)=N\O : 112% (inactive)

growth reading for NC(=S)N/N=C/c1ccc(OC(=O)COc2ccccc2)cn1 : 92% (inactive)

growth reading for O=C(O)c1cccc(-n2ncc(Cl)c(Cl)c2=O)c1 : 101% (inactive)

growth reading for Oc1cc(O)c2c(c1)O[C@H](c1ccc(O)c(O)c1)[C@@H](O)C2 : 96.6% (inactive)

growth reading for COc1ccc(Br)c(C=O)c1 : 84.5% (inactive)

growth reading for CC(=O)NC(O)C(Cl)Cl (stereo unspecified) : 102% (inactive)

growth reading for COC(=O)c1ccccc1C(=O)c1c(C)cc(C)cc1C : 89.5% (inactive)

growth reading for c1ccc(Nc2ccccn2)nc1 : 89% (inactive)

growth reading for CC1(C)OC(=O)CC1=O : 76.1% (inactive)

growth reading for CC(=O)c1cccc(NS(=O)(=O)c2ccc(C)cc2)c1 : 91% (inactive)

growth reading for O=c1cc(Cl)nc2ccccn12 : 106% (inactive)

growth reading for c1ccc(Oc2c3ccccc3nc3ccccc23)cc1 : 47.9% (inactive)

growth reading for CC(C)(CC(=O)O)CC(=O)O : 96.5% (inactive)

growth reading for C=CCC(OC(C)=O)c1ccc(OC)c(OC)c1 (stereo unspecified) : 119% (inactive)

growth reading for Cc1[nH]nc(C(N)=O)c1[N+](=O)[O-] : 87.6% (inactive)

growth reading for CN(C)CCOC(=O)Nc1ccc(Cc2ccc(NC(=O)OCCN(C)C)cc2)cc1 : 111% [100 µM] (inactive)

growth reading for CC1(C)OC2C(CO)OC(n3ccc(=O)[nH]c3=O)C2O1 (stereo unspecified) : 98.4% (inactive)

growth reading for CC(C)c1ncc([N+](=O)[O-])n1C : 102% (inactive)

growth reading for Nc1cccc2cccc(O)c12 : 96.1% (inactive)

growth reading for O=C(CC(CC(=O)c1ccccc1)c1ccccn1)c1ccccc1 : 95.7% (inactive)

growth reading for CN=S(=O)(OCCCCCOS(=O)(=NC)c1ccc(C)cc1)c1ccc(C)cc1 (stereo unspecified) : 86% (inactive)

growth reading for CCOC(=O)c1cc(C)[nH]c(=O)c1C#N : 101% (inactive)

growth reading for CN(C)c1ccc(/C=C/C(=O)c2ccc(NC(N)=O)cc2)cc1 : 104% (inactive)

growth reading for CC1CC2C3CCC4=CC(=O)CCC4(C)C3CCC2(C)C1(O)C(=O)CO (stereo unspecified) : 103% (inactive)

growth reading for CC(C)OCC(CCl)OC(=O)Nc1ccccc1 (stereo unspecified) : 100% (inactive)

growth reading for CC(=O)N(C(C)=O)c1ccc(C)cc1 : 96.2% (inactive)

These measurements were taken from PubChem BioAssay (NCI).
